These measurements were taken from BindingDB's records for doi:10.7270/Q23F4N3R.

experiment: hexokinase 1 inhibition, dose response, selectivity assay for HKDC1 inhibitor project, biochemical (AID 504763)
pIC50: −log10 of the molar value.
Returns t if the recorded pIC50 is greater than or equal to 5, and f otherwise.

Cc1cc2nnc(SCC(=O)Nc3cc(S(=O)(=O)N4CCOCC4)ccc3Cl)n2c2ccccc12 :: f
COC1=C(Br)C(=O)c2ncccc2C1=O [7-bromo-6-methoxyquinoline-5,8-dione] :: t
O=C(C=Cc1ccc(Br)cc1)NC(=S)Nc1ccc(S(=O)(=O)Nc2nccs2)cc1 :: f
Cc1cc(C=C2C(=O)NC(=O)N(c3ccc(Cl)cc3)C2=O)c(C)n1-c1sc2c(c1C#N)CCCC2 [SMR000211212] :: f
COC1=CC(=O)C=C(OC)C1=O [MLS002207260] :: t
O=C1C(=O)c2c(C(=O)c3ccccc3)coc2-c2ccccc21 :: f
CCCCC(CC)CNC(=N)NC(=N)NCCCCCCNC(=N)NC(=N)NCC(CC)CCCC (stereo not given) [MLS002153995] :: f
O=C1c2ccccc2-c2onc3ccc(Oc4ccccc4)c1c23 [MLS000525578] :: f
COC1=CC(=O)c2c(ccc3ncnc(N)c23)C1=O [MLS002701780] :: t
COc1ccc(NC(=O)Cc2c[nH]c3ccccc23)cc1S(=O)(=O)N1CCCCC1 :: f
O=C(/C=C/c1cccs1)Nc1scc(-c2ccccc2)c1C(=O)O [SMR000364116] :: f
O=C1C=C(Nc2ccccc2C(=O)O)c2ccccc2C1=O [SMR000123743] :: f
O=C(COC(=O)c1n[nH]c2ccccc12)c1cccc(Br)c1 :: f
Cc1ccc2cc(CCNC(=O)c3ccc(S(=O)(=O)N4CCCCC4)cc3)c(O)nc2c1 :: t
O=C(O)CSc1cc(NS(=O)(=O)c2ccc(Cl)cc2)c2ccccc2c1O :: f
O=C1C(Nc2ccccc2)=CC(=NS(=O)(=O)c2cccs2)c2ccccc21 [MLS000374486] :: t

* * *

Readings of IC50 for the listed compounds
experiment: hexokinase 1 inhibition, dose response, selectivity assay for HKDC1 inhibitor project, biochemical (AID 504763)
Endpoint: IC50 (µM)

COC1=CC(/C=C(\C#N)c2nc3ccc(C)cc3[nH]2)C=C([N+](=O)[O-])C1=O (stereo not given) :: 18
Oc1ccc(O)c(Cc2nc3ccccc3[nH]2)c1 :: 7.03
Cc1[nH]c2ccccc2c1C1=CC(=O)C=CC1=O :: 9.71
CCc1nc2sc3c(O)ncnc3c2c2c1CSC(C)(C)C2 :: 21.8
COC1=CC(=O)C(OC)=C(OC)C1=O :: 6.46
CCCCNC(=O)c1sc(=S)n2c1[nH]c(=O)c1ccccc12 :: 16.1
O=C(O)c1ccc(N=Cc2c(O)ccc3ccccc23)cc1 :: 70.8

* * *

assay: hexokinase 1 inhibition, dose response, selectivity assay for HKDC1 inhibitor project, biochemical (AID 504763)
Endpoint: IC50 (µM)

O=C(CSc1nnc(CCCN2C(=O)c3cccc4cccc(c34)C2=O)n1-c1ccccc1)N1CCN(CCO)CC1 :: 7.31
O=C(CSc1nnc(-c2cccnc2)[nH]1)Nc1ccnc2ccccc12 :: 11
O=C1C(Nc2ccc(O)cc2)=CC(=NS(=O)(=O)c2cccs2)c2ccccc21 :: 6.28
CCOC(=O)CSc1nc2ccc(C)cc2n2cnnc12 :: 12.9
Cc1nc2c(c(=O)c3ccccc3n2C)c(=O)n1-c1ccccc1 :: 15.3
COc1ccc(NC(=O)CSc2ccc(-c3ccco3)nn2)c(OC)c1 :: 5.55
Cc1ccc(S(=O)(=O)N=C2C=C(Nc3cccc(C(=O)O)c3)C(=O)c3ccccc32)cc1 :: 6.79
NC1=C(Br)C(=O)c2ncccc2C1=O :: 13.8
Cn1c2ccccc2c(=O)c2c(=O)n(-c3ccc(F)cc3)c(-c3cccs3)nc21 :: 2.5
CCOC(=O)C1=C(Cc2ccc(OC)cc2)C(=O)c2ccccc2C1=O :: 12.8
Cc1ccc(SC2=C(Sc3ccc(C)cc3)C(=O)c3ccccc3C2=O)cc1 :: 20
CCCc1nc2oc3c(NCCOCCO)ncnc3c2c2c1COC(C)(C)C2 :: 11.1
CCCC(=O)NC1=C(Cl)C(=O)c2ccccc2C1=O :: 3.06
